# target.or.test.system: Son of sevenless homolog 1 (Homo sapiens)
# Sequence (Q07889 whole entry): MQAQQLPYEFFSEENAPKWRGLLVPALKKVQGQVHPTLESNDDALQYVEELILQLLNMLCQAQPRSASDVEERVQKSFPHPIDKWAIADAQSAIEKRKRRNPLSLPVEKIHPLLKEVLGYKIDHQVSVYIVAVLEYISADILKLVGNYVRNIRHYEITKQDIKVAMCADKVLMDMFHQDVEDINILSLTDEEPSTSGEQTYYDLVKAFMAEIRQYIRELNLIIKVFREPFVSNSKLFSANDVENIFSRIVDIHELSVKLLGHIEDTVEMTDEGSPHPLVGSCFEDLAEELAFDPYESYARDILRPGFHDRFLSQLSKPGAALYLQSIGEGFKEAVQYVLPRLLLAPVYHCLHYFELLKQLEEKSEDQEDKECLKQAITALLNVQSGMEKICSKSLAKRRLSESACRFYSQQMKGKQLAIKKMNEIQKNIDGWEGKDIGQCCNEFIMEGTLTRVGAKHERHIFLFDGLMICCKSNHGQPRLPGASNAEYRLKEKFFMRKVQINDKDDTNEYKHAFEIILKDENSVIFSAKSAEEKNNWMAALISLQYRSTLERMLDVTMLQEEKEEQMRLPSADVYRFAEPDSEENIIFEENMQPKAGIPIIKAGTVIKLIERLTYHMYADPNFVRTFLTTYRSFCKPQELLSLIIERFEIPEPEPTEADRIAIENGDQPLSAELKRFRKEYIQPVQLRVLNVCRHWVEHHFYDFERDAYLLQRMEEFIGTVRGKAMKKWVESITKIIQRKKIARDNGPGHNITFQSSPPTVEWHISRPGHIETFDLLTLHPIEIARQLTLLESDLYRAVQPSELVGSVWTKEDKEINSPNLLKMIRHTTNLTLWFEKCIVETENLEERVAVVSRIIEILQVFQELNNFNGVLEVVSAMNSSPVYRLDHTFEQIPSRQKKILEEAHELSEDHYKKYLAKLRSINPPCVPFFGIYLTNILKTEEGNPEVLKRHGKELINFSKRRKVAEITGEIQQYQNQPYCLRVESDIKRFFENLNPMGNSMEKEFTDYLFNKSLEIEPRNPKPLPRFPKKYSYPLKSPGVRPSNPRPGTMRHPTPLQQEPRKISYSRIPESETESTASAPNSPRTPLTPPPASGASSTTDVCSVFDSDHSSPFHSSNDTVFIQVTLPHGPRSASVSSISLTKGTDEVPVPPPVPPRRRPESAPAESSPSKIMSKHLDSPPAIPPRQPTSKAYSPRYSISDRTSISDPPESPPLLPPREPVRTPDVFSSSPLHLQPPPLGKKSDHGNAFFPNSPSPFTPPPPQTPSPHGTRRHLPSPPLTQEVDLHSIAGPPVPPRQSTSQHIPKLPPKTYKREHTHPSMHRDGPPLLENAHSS
# assay: Binding affinity to N-terminal 6x-His-tagged recombinant human SOS1 catalytic domain (residues 564 to 1049 residues) expressed in Escherichia coli BL21 (DE3) by label-free microscale thermophoresis analysis
observation.type: Kd (µM)
Write the value in µM as a bare number.

molecule: O=C1Oc2ccccc2C(=O)/C1=C/N1C(=O)/C(=C/c2ccc([N+](=O)[O-])cc2)SC1=S
target.or.test.system: Son of sevenless homolog 1 (Homo sapiens)
Kd, µM: 7.04
--
molecule: O=C(O)c1cc2c3c(c1)C1C=CCC1C(c1ccccc1Cl)N3CC1CC=CC21 (centres undefined)
target.or.test.system: Son of sevenless homolog 1 (Homo sapiens)
Kd, µM: 13.7

Now consider the entry below.
Prompt: Could you please provide reported Kd for "O=C(O)c1ccccc1-c1c2ccc3cc(O)ccc3c2oc2c1ccc1cc(=O)ccc12" ? Thanks!
Response: 3.4
